Tested on: A549
test.description: Antiproliferative activity against human A549 cells incubated for 72 hrs by MTT assay
Assay type: functional, cell-based
reported.conditions: A549, 72 h
property: IC50

COc1ccc(-c2coc3cc(OCC(=O)O[C@@H]4c5cc6c(cc5[C@@H](c5cc(OC)c(OC)c(OC)c5)[C@H]5C(=O)OC[C@@H]54)OCO6)ccc3c2=O)cc1 ... 213 nM
COc1cc([C@@H]2c3cc4c(cc3[C@@H](n3cc(CO[C@H]5O[C@H](CO)[C@H](O)[C@H](O)[C@H]5O)nn3)[C@H]3COC(=O)[C@H]23)OCO4)cc(OC)c1O ... 2850 nM
COc1ccc(-c2coc3cc(OCCCC(=O)O[C@@H]4c5cc6c(cc5[C@@H](c5cc(OC)c(OC)c(OC)c5)[C@H]5C(=O)OC[C@@H]54)OCO6)ccc3c2=O)cc1 ... 213 nM
CCCC(=O)OC[C@H]1O[C@H](OCc2cn([C@@H]3c4cc5c(cc4[C@@H](c4cc(OC)c(O)c(OC)c4)[C@H]4C(=O)OC[C@@H]43)OCO5)nn2)[C@H](OC(=O)CCC)[C@@H](OC(=O)CCC)[C@H]1OC(=O)CCC ... 490 nM
COc1ccc(-c2coc3cc(OCCCCC(=O)O[C@@H]4c5cc6c(cc5[C@@H](c5cc(OC)c(OC)c(OC)c5)[C@H]5C(=O)OC[C@@H]54)OCO6)ccc3c2=O)cc1 ... 213 nM
